target: MBP-FL DDX3X (human, UniProt O00571 1-662); experiment: EMSA; 1 mM ATP-Mg; EMSA: 20 mM K-phosphate pH 7.0, 125 mM KCl, 1 mM DTT, 0.005% Tween-20, 10% glycerol (1 mM ATP-Mg for MBP-FL/Core-C), gel at room temperature; ITC: 20 mM K-phosphate pH 7.0, 50 mM KCl, 25 C; NMR: 200 mM KCl (also 120 mM), 10 C, 50 uM; conditions: protein: recombinant; tags: N-terminal His6-MBP; label: 5'-FAM; GQ abolished
Sequence (O00571 whole entry): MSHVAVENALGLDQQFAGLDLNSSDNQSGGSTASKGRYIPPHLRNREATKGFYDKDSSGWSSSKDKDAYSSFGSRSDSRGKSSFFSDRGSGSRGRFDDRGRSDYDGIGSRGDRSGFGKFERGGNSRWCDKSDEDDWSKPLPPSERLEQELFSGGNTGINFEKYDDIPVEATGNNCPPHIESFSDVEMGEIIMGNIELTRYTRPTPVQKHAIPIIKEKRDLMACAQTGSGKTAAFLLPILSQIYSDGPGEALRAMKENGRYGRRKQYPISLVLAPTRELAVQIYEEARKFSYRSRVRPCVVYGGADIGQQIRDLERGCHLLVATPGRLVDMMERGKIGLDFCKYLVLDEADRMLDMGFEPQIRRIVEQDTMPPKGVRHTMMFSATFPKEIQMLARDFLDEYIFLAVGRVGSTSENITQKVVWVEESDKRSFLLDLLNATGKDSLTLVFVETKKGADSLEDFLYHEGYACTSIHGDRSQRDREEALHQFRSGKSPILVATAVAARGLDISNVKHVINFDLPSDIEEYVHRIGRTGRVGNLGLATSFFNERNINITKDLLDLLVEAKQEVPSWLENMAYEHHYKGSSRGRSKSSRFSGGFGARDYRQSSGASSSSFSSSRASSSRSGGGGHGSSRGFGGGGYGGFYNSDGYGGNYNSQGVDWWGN
RECORDED_METRIC: Kd (nM)

>>> reported_measurement("UGUAGAAAGAGCAGAUCUAGAUGC (ssRNA) [FAM-NRAS mutant RNA]")
222
